experiment: Pharmacokinetic assessments in patient plasma; type: in vivo, human; conditions: human, plasma, oral, t1/2, vatalanib alone, day 14, steady state, plasma, mean ± SD
endpoint: half-life (h)

> print(dat)
                                   molecule   endpoint  unitinfo  datavalue
1  Clc1ccc(Nc2nnc(Cc3ccncc3)c3ccccc23)cc1 [Vatalanib]  half-life         h        6.3
